Give TGI for every item shown.
Tested on: BT-549 breast
protocol text: NCI tumour cell line growth inhibition, 48 h

Recall and state the measured TGI for N#C[C@H](C(=O)c1ccccc1F)c1nc2ccccc2s1 .
> 100 µM

# return recorded TGI for input CC(C)(C)N1CCC1CN (stereo unspecified)
> 100 µM

Find the measured TGI of O=c1[nH]nc(Cc2ccc(Cl)cc2)n1/N=C/c1ccco1 and report it.
> 100 µM

Please report the measured TGI for O=C(c1cc2ccccc2[nH]1)N1C2CCC1CN(CCOC(c1ccc(F)cc1)c1ccc(F)cc1)CC2 (stereo unspecified)
> 100 µM

Please report the measured TGI for Cc1cc(Cl)cc2c(N=Nc3ccc(S(N)(=O)=O)cc3)c(O)[nH]c12
> 25 µM

Tell me measured TGI for Nc1ccccc1NC(=O)c1ccc(CNc2nccc(-c3cccnc3)n2)cc1 please.
14.8 µM

Consider the compound c1cnn(C23C4C5C6C4C2C6C53)c1 (stereo unspecified) and give its recorded TGI.
> 100 µM

Please report TGI for the following compound: CC1=NN(c2nc(N)nc(CBr)n2)C(C)(C)C1
28.9 µM

Query TGI for C=CCC(N[C@@H](CO)c1ccccc1)c1cn(Cc2ccccc2Cl)c(=O)n(Cc2ccccc2Cl)c1=O (stereo partly specified)
> 100 µM

For the compound CC12OOC(c3ccccc31)c1c2ccc2ccccc12 (stereo unspecified) , give its reported TGI.
22.3 µM

Respond only with TGI recorded for O=C(Cn1cc(-c2ccccc2)nn1)NC1CCCCC1
> 100 µM
